Measured values drawn from ChEMBL document CHEMBL1131370 for this set.

testTarget: Plasmepsin II (Plasmodium falciparum)
Sequence (P46925 whole entry): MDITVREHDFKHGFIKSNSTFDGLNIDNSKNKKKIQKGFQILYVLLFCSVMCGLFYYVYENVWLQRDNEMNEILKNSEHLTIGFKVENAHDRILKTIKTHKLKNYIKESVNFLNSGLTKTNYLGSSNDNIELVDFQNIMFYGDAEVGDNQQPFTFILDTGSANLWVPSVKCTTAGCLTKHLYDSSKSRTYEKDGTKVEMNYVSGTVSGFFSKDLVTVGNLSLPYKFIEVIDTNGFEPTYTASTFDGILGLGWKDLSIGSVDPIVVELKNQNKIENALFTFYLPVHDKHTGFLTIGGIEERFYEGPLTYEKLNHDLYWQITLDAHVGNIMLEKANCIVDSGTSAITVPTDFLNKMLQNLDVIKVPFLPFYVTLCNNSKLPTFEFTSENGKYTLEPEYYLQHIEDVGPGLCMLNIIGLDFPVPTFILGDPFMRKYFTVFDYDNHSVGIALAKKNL
methodSummary: Inhibitory activity against plasmepsin-2 from Plasmodium falciparum
measuredParameter: pKi
Units for pKi: none; it is -log10 of a concentration expressed in mol/L.

// lookup pKi for CCCCNC(=O)CC(O)C(CC(C)C)NC(=O)[C@@H](NC(=O)Cc1ccc2ccccc2c1)[C@@H](C)CC (stereo partly specified)
7.30

====

pKi tested on UniProt:P07339: recorded values
Sequence (P07339 65-162 limits assumed): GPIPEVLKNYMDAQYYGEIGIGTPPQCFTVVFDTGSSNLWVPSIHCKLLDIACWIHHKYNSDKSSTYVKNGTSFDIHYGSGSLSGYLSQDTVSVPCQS
Sequence (P07339 169-412 limits assumed): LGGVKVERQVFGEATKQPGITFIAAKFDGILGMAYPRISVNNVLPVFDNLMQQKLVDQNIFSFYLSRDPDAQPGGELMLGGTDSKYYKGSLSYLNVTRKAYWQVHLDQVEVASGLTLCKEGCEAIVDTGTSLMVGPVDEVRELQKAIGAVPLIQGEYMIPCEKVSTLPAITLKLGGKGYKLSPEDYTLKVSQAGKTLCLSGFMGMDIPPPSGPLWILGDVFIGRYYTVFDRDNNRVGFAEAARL
Units for pKi: none; it is -log10 of a concentration expressed in mol/L.

// lookup pKi for CCCCNC(=O)CC(O)C(Cc1ccccc1)NC(=O)[C@@H](NC(=O)c1ccc(OC)cc1OC)C(C)C (stereo not given in full)
5.80

Field entry: CCCCNC(=O)CC(O)C(CC(C)C)NC(=O)[C@H](CC(C)C)NC(=O)COc1ccc2ccccc2c1 (stereo not given in full)
6.04

Field entry: CC[C@H](C)[C@H](NC(=O)CN1CCC(C(N)=O)(c2ccccc2)CC1)C(=O)NC(Cc1ccccc1)C(O)CC(=O)NCCCc1ccccc1 (stereo not given in full)
5.41

Field entry: CCCCNC(=O)CC(O)C(Cc1ccccc1)NC(=O)[C@@H](NC(=O)c1ccc(OC)cc1OC)c1ccccc1 (stereo in doubt; form 1)
5.68

Field entry: CCCCNC(=O)CC(O)C(Cc1ccccc1)NC(=O)[C@H](NC(=O)COc1ccc2ccccc2c1)c1ccccc1 (stereo not given in full)
6.15
